- assayed.target: human TRPA1 (Homo sapiens)
- Sequence (O75762 whole entry): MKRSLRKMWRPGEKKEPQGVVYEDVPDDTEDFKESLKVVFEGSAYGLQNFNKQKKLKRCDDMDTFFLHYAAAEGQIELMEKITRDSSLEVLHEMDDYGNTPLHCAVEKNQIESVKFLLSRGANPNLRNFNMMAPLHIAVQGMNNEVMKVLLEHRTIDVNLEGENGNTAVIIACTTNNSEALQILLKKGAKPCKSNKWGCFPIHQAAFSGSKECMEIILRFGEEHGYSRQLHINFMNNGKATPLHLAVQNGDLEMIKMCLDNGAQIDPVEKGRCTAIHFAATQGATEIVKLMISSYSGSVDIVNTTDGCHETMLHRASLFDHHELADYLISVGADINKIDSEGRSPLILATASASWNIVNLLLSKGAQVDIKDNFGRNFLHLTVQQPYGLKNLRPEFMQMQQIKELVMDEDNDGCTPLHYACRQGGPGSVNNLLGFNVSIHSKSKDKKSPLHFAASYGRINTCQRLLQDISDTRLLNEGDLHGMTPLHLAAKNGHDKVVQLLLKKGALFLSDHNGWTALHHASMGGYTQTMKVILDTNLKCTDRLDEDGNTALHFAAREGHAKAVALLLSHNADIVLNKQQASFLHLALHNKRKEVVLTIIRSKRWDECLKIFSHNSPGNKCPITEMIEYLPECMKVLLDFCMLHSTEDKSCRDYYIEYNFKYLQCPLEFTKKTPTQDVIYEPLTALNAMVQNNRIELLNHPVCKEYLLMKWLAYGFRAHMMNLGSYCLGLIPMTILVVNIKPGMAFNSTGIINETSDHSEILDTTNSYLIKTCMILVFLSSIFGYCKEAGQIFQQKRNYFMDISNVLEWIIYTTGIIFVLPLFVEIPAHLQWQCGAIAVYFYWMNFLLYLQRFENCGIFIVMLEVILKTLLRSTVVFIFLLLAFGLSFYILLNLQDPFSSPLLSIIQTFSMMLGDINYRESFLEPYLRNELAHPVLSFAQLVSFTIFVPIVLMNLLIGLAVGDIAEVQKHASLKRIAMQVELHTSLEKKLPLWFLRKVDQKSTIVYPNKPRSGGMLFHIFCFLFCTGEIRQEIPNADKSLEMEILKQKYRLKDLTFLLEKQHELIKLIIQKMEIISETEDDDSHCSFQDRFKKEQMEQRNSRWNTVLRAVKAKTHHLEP
- experiment.summary: FLIPR Ca2+ assay, reduction of hydrogen peroxide activation of TRPA1
- Assay type: cell-based
- Set-up: expressed in transfected cells
- experimental.parameters: compound 100 μM against 200 μM hydrogen peroxide; Sets 1-4; read-out: % Reduction of Hydrogen Peroxide TRPA1 Activation

compound	units.symbol	inhibition at 100 µM
CC(=O)c1cccnc1	%	57.7
CC(=O)C(=O)OCCC(C)C [isoamyl pyruvate]	%	59.9
O=C(O)CC(O)C(=O)O (centres unmarked)	%	47
O=C(O)c1cccc(O)c1 [3-hydroxybenzoic acid]	%	53.4
C/C=C(\C)C(=O)OCc1ccccc1 [benzyl tiglate]	%	59.4
